tested on: MCF7; experiment: NCI tumour cell line growth inhibition, 48 h
Calls of active or inactive are those of the source. Rule as the data show it: active = GI50 up to about 1.1 µM and inactive = higher.
Respond with a class label; see Y (active), N (inactive)

Request: How did this test come out for "CCCC(=O)Nc1cc(/C=C/C(=O)N2C[C@H]3C[C@@]34C2=CC(=O)c2[nH]cc(C)c24)n(C)c1" ?
Response: Y

Request: Per the records of this test, what outcome belongs to CC(NNC(=O)c1cc[n+]([BH2-]C#N)cc1)c1ccc(Cl)c(Cl)c1 (stereo not given) ?
Response: N

Request: Which outcome did this test record for the molecule "Nc1ccc(Oc2ccc(C34CC5CC(C3)CC(c3ccc(Oc6ccc(N)cc6)cc3)(C5)C4)cc2)cc1" ?
Response: N

***
Request: How was "COc1c(-c2ccc(F)cc2)oc2cc(O)cc(O)c2c1=O" classified in this test?
Response: N

Request: Outcome? "CCOC(=O)C1(C(=O)OCC)CC(=O)[C@@]2(C1)OCC[C@H]1OC(=O)C[C@H]12"
Response: N

Request: Any idea what this test logged for "O=C1C[C@H](CCC(=O)OCc2ccccc2)NC(=O)C[C@H](CCC(=O)OCc2ccccc2)NC(=O)C[C@H](CCC(=O)OCc2ccccc2)N1" ?
Response: N

Request: Which outcome was assigned to "CCOC(=O)c1ccc(-n2nnc(C(N)=O)c2O)cc1" in this test?
Response: N

Request: Any idea what this test logged for "Clc1cc(Cl)cc(/C=N/C23CC4CC(CC(C4)C2)C3)c1" ?
Response: N

Request: # fetch the recorded call for CSc1nc2c(c(=O)[nH]1)N=C(c1ccc(Cl)cc1)CC(c1ccccc1)N2 (stereo not given) here
Response: N

Request: # fetch the recorded call for "COc1ccc(C(=O)c2sc(N(C)C)nc2-c2ccccc2)cc1" here
Response: N

Request: // outcome(item) with item = "O=C(Oc1cncc(Cl)c1)c1cc2ccccc2sc1=O"
Response: N

Request: Give the logged outcome of this assay for the following molecule: CCC(C)[C@H](NC(=O)N[C@H](C)c1ccccc1)C(=O)OC (stereo not given in full)
Response: N

Request: // outcome(item) with item = "Nc1ccc(Oc2ccc(C3(c4ccc(Oc5ccc(N)c(O)c5)cc4)C4CC5CC(C4)CC3C5)cc2)cc1O"
Response: N

Request: Each molecule tested received a call. Report the one for "O=C(O)c1cc(/N=C/c2ccccc2O)cc(C(=O)O)c1" .
Response: N

Request: Write down the call the test reported for this molecule. Item: "Oc1ccc(-c2nc(-c3cccnc3)c(-c3ccc(F)cc3)[nH]2)cc1"
Response: N

Request: What did the test return for COc1ccccc1N1C(=O)/C(=C\c2cccc(Oc3ccccc3)c2)SC1c1ccccc1 (stereo not given) ?
Response: N

Request: Short answer needed: outcome of this test for COC1=CC(=O)C(C2CC(=O)c3c(O)cc(O)cc3O2)=CC1=O (stereo not given) ?
Response: N

====

test system: OVCAR-8; experiment: NCI tumour cell line growth inhibition, 48 h
Calls of active or inactive are those of the source. No stated cut-off is given here; in the data, active = GI50 up to about 1.1 µM and inactive = higher.
Listing of entries alongside the reported GI50.

Request: Which value of GI50 has been reported for "CCCCOC(=O)Nc1ccc(S(=O)(=O)Nc2c(Cl)cccc2Cl)cc1" in the records?
Response: 22.3 µM (inactive)

Request: Entry "O=c1c(C(c2ccc(/C=C/c3ccccc3)cc2)c2c(O)oc3ccccc3c2=O)c(O)oc2ccccc12" has what GI50?
Response: 20.2 µM (inactive)

Request: Recorded GI50 of "C=CCNC1=C2C[C@@H](C)C[C@@H](OC)[C@H](OC(=O)CCN)[C@H](C)/C=C(\C)[C@@H](OC(N)=O)[C@H](OC)/C=C\C=C(/C)C(=O)NC(=CC1=O)C2=O" , please.
Response: 4.18 µM (inactive)

Request: Tell me the measured GI50 of COC(=O)/C=C(/C=C1/C(C#N)=C(N)N(c2ccc(Cl)cc2)C1(C)/C(=C\C(=O)OC)C(=O)OC)C(=O)OC (centres undefined) , please.
Response: 17.3 µM (inactive)

====

system: IGROV-1; test: NCI tumour cell line growth inhibition, 48 h
Active and inactive are the calls of the source. Rule as the data show it: active = GI50 up to about 1.1 µM and inactive = higher.
In this exercise, the only acceptable responses are active, inactive

Here are 3 compounds together with their reported answers.
Request: Dear all, I need the recorded test outcome for "COc1nc2ncc([C@@H](O)[C@H](O)CO)nc2c(=O)n1C" , thank you.
Response: inactive

Request: Record request — test call for O=C1c2ccccc2C(=O)C2NC(CCCCCSSCCCCCC3=NC4C(=O)c5ccccc5C(=O)C4N3)=NC12 (centres undefined)
Response: inactive

Request: What was the test verdict on "Nc1ccc(Oc2ccc(C3(c4ccc(Oc5ccc(N)c(O)c5)cc4)C4CC5CC(C4)CC3C5)cc2)cc1O" ?
Response: inactive

Next:
Request: Test call for this compound, please: "CC(=O)O[C@H]1CC[C@@]2(C)[C@H](CC[C@@H]3[C@@H]2CC[C@]2(C)[C@@H](c4ccc(=O)oc4)C[C@H]4O[C@]342)C1"
Response: active

====

test system: OVCAR-8; assay: NCI tumour cell line growth inhibition, 48 h
Calls of active or inactive are those of the source. Cut-off read from the data, not from the text of the source: active = GI50 up to about 1.1 µM and inactive = higher.
Return exactly one item of active, inactive

Request: # lookup: test call for "Cc1ccc(S(=O)(=O)NCCCSCCN)cc1"
Response: inactive

Request: Query: recorded result category for Cc1ccc(C(O)/C(=N/N)c2nc3ccc([N+](=O)[O-])cc3nc2O)cc1 (stereo not drawn) in this test
Response: inactive

Request: What call does the record list for "C/C(COc1ccccc1)=N\NC(N)=S" ?
Response: inactive

Request: Recorded call for "COc1cc(/C=C2/CCCc3ccccc3C2=O)cc(OC)c1OC" ?
Response: inactive

Request: Assay outcome for CCOC(=O)C1C(c2ccco2)C2(C#N)C(=N)OC1(C)C2(C#N)C#N (stereo not drawn) : what was it?
Response: inactive

Continuing:
Request: Test call for this compound, please: "O=C(O)c1c[nH]c2c(ccc3ncccc32)c1=O"
Response: inactive

Request: Outcome logged for "CCCc1c(O)nc2ccccc2c1O" in this assay:
Response: inactive

Request: Would you mind telling me which call this test gave CC[C@]12C=CCN3CCC4(c5cc(/N=N/c6ccccc6)c(OC)cc5N(C)[C@H]4[C@@](O)(C(=O)OC)[C@@H]1OC(C)=O)[C@@H]32 (stereo partly drawn) ?
Response: inactive

Request: Recorded call for C=C1CC(OC)(C(OC)C(=O)N[C@H]2OCO[C@H]3C2O[C@H](C[C@@H](COC)OC)C(C)(C)C3OC)O[C@H](C)[C@@H]1C (stereo partly drawn) ?
Response: active

Request: # lookup: test call for COc1cc([C@@H]2OC(=O)C3C2C(=O)O[C@H]3c2ccc(O)c(OC)c2)ccc1O (stereo partly drawn)
Response: inactive

Request: Entry "COc1ccc2nc3ccccc3c(NCCCCN(C)CCCl)c2c1" : call = ?
Response: active

Request: I'd appreciate the recorded outcome for N#CC(C(=O)C(=O)NCCCNC(=O)C(=O)C(C#N)c1ccccc1)c1ccccc1 (stereo not drawn) from this test.
Response: inactive

Request: Identify the outcome logged in this assay for the compound shown: Cc1ccc(S(=O)(=O)N/N=C2\C3CC4CC(C3)C2C4)cc1 (stereo not drawn)
Response: inactive

====

Consider the following molecules and their measured GI50 readings.
tested on: EKVX; assay: NCI tumour cell line growth inhibition, 48 h
Active and inactive are the calls of the source. No stated cut-off is given here; in the data, active = GI50 up to about 1.1 µM and inactive = higher.

Here are 3 molecules together with their reported answers.
Request: Observed GI50 on EKVX for "O=C1CCCCCCCCCCOC(=O)CCCCCCCCCCO1" , please.
Response: > 100 µM (inactive)

Request: Query the reported GI50 for EKVX; item: O=CC1OC(=O)c2cc(O)c(O)c(O)c2-c2c(cc(O)c(O)c2O)C(=O)OC1C1OC(=O)c2cc(O)c(O)c(O)c2-c2c(O)c(O)c3oc(=O)c4c(c(O)c(O)c5oc(=O)c2c3c54)-c2c(cc(O)c(O)c2O)C(=O)OCC1O (centres undefined)
Response: 16.9 µM (inactive)

Request: Which measured GI50 belongs to O=C1C2c3[nH]c4ccccc4c3C3CCSCC3C2C(=O)N1c1ccccc1 (centres undefined) , tested on EKVX?
Response: > 100 µM (inactive)

Here is another molecule to look at.
Request: Form: Entry = "Cc1nc2c(nc1Cl)nc(Oc1ccc(Cl)cc1)c1ccccc12" | System = EKVX | GI50 = ____
Response: > 100 µM (inactive)

====

test system: OVCAR-3; experiment: NCI tumour cell line growth inhibition, 48 h
Active and inactive are the calls of the source. Rule as the data show it: active = GI50 up to about 1.1 µM and inactive = higher.
Attribute: GI50

Previously resolved entries follow.
Request: Endpoint output: GI50 of "CC(C)c1cccc(C(C)C)c1NC1=CC(=O)C(=O)c2ccccc21" . Value?
Response: > 100 µM (inactive)

Request: Entry under review: "CC1=C(C)C(=O)C2=C(OCCO2)C1=O" . Reported GI50?
Response: 10.3 µM (inactive)

Request: For the compound shown here, "COc1ccc(N2C(=O)/C(=C/c3ccc(N(CCC#N)CCC#N)cc3C)N=C2/C=C\c2ccccc2)cc1" , give the reported GI50.
Response: > 100 µM (inactive)

Request: Given the entry "O=C(NCc1ccc2ccc3cccnc3c2n1)c1ccc[n+](Cc2ccccc2)c1" , report its measured GI50.
Response: 55.6 µM (inactive)

Request: I am curious: what GI50 value has been reported for "O=C(Oc1cncc(Cl)c1)c1cc2ccccc2sc1=O" ?
Response: 60.5 µM (inactive)

Others:
Request: Can you look up the measured GI50 of CC1N=C(c2ccccc2)OC1=O (stereo unspecified) for me?
Response: > 100 µM (inactive)

Request: # query: GI50 of entry "COc1ccc(NC(=S)c2ccc([N+](=O)[O-])o2)cc1"
Response: 1.19 µM (inactive)
